- Conditions Used: in isopropanol, 303.15 K
Metric: solubility (mole fraction)
One number for each entry.

Item: CC1(C)COP(=O)(O)OC1c1ccccc1Cl (stereo unspecified) | solubility (mole fraction): 0.0251

* * *

- Conditions Used: in methanol, 298.15 K
Metric: solubility (mole fraction)
Give bare numbers.

Item: CC1(C)COP(=O)(O)OC1c1ccccc1Cl (stereo unspecified) | solubility (mole fraction): 0.00713

* * *

- Conditions Used: in ethanol, 303.15 K
Metric: solubility (mole fraction)
Give bare numbers.

Item: CC1(C)COP(=O)(O)OC1c1ccccc1Cl (stereo unspecified) | solubility (mole fraction): 0.00783

* * *

- Conditions Used: in isopropanol, 283.15 K
Metric: solubility (mole fraction)
Numbers only.

Item: CC1(C)COP(=O)(O)OC1c1ccccc1Cl (stereo unspecified) | solubility (mole fraction): 0.0135

* * *

- Conditions Used: in acetic acid, 338.15 K
Metric: solubility (mole fraction)
Give bare numbers.

Item: CC1(C)COP(=O)(O)OC1c1ccccc1Cl (stereo unspecified) | solubility (mole fraction): 0.00523

* * *

- Conditions Used: in acetic acid, 318.15 K
Metric: solubility (mole fraction)
One number for each entry.

Item: CC1(C)COP(=O)(O)OC1c1ccccc1Cl (stereo unspecified) | solubility (mole fraction): 0.00277

* * *

- Conditions Used: in ethanol, 318.15 K
Metric: solubility (mole fraction)

Item: CC1(C)COP(=O)(O)OC1c1ccccc1Cl (stereo unspecified) | solubility (mole fraction): 0.0121

* * *

- Conditions Used: in isopropanol, 308.15 K
Metric: solubility (mole fraction)
Give bare numbers.

Item: CC1(C)COP(=O)(O)OC1c1ccccc1Cl (stereo unspecified) | solubility (mole fraction): 0.029

* * *

- Conditions Used: in methanol, 288.15 K
Metric: solubility (mole fraction)

Item: CC1(C)COP(=O)(O)OC1c1ccccc1Cl (stereo unspecified) | solubility (mole fraction): 0.00572

* * *

- Conditions Used: in methanol, 278.15 K
Metric: solubility (mole fraction)

Item: CC1(C)COP(=O)(O)OC1c1ccccc1Cl (stereo unspecified) | solubility (mole fraction): 0.00445

* * *

- Conditions Used: in water, 288.15 K
Metric: solubility (mole fraction)
Numbers only.

Item: CC1(C)COP(=O)(O)OC1c1ccccc1Cl (stereo unspecified) | solubility (mole fraction): 0.000136

* * *

- Conditions Used: in tert-butanol, 333.15 K
Metric: solubility (mole fraction)
Give bare numbers.

Item: CC1(C)COP(=O)(O)OC1c1ccccc1Cl (stereo unspecified) | solubility (mole fraction): 0.051

* * *

- Conditions Used: in ethanol, 288.15 K
Metric: solubility (mole fraction)
Numbers only.

Item: CC1(C)COP(=O)(O)OC1c1ccccc1Cl (stereo unspecified) | solubility (mole fraction): 0.00536

* * *

- Conditions Used: in acetic acid, 328.15 K
Metric: solubility (mole fraction)
Give bare numbers.

Item: CC1(C)COP(=O)(O)OC1c1ccccc1Cl (stereo unspecified) | solubility (mole fraction): 0.0039

* * *

- Conditions Used: in acetic acid, 293.15 K
Metric: solubility (mole fraction)
Answers are plain numbers.

Item: CC1(C)COP(=O)(O)OC1c1ccccc1Cl (stereo unspecified) | solubility (mole fraction): 0.00131

* * *

- Conditions Used: in water, 303.15 K
Metric: solubility (mole fraction)
One number for each entry.

Item: CC1(C)COP(=O)(O)OC1c1ccccc1Cl (stereo unspecified) | solubility (mole fraction): 0.000164

* * *

- Conditions Used: in water, 313.15 K
Metric: solubility (mole fraction)

Item: CC1(C)COP(=O)(O)OC1c1ccccc1Cl (stereo unspecified) | solubility (mole fraction): 0.000168

* * *

- Conditions Used: in methanol, 308.15 K
Metric: solubility (mole fraction)

Item: CC1(C)COP(=O)(O)OC1c1ccccc1Cl (stereo unspecified) | solubility (mole fraction): 0.00892

* * *

- Conditions Used: in water, 298.15 K
Metric: solubility (mole fraction)
Numbers only.

Item: CC1(C)COP(=O)(O)OC1c1ccccc1Cl (stereo unspecified) | solubility (mole fraction): 0.000162

* * *

- Conditions Used: in water, 318.15 K
Metric: solubility (mole fraction)
Answers are plain numbers.

Item: CC1(C)COP(=O)(O)OC1c1ccccc1Cl (stereo unspecified) | solubility (mole fraction): 0.00017

* * *

- Conditions Used: in tert-butanol, 318.15 K
Metric: solubility (mole fraction)
Give bare numbers.

Item: CC1(C)COP(=O)(O)OC1c1ccccc1Cl (stereo unspecified) | solubility (mole fraction): 0.0359

* * *

- Conditions Used: in isopropanol, 313.15 K
Metric: solubility (mole fraction)
Give bare numbers.

Item: CC1(C)COP(=O)(O)OC1c1ccccc1Cl (stereo unspecified) | solubility (mole fraction): 0.0342

* * *

- Conditions Used: in methanol, 313.15 K
Metric: solubility (mole fraction)
One number for each entry.

Item: CC1(C)COP(=O)(O)OC1c1ccccc1Cl (stereo unspecified) | solubility (mole fraction): 0.0105

* * *

- Conditions Used: in acetic acid, 303.15 K
Metric: solubility (mole fraction)
Numbers only.

Item: CC1(C)COP(=O)(O)OC1c1ccccc1Cl (stereo unspecified) | solubility (mole fraction): 0.00186

* * *

- Conditions Used: in tert-butanol, 338.15 K
Metric: solubility (mole fraction)

Item: CC1(C)COP(=O)(O)OC1c1ccccc1Cl (stereo unspecified) | solubility (mole fraction): 0.0574

* * *

- Conditions Used: in isopropanol, 318.15 K
Metric: solubility (mole fraction)
Numbers only.

Item: CC1(C)COP(=O)(O)OC1c1ccccc1Cl (stereo unspecified) | solubility (mole fraction): 0.0391

* * *

- Conditions Used: in acetic acid, 308.15 K
Metric: solubility (mole fraction)
Numbers only.

Item: CC1(C)COP(=O)(O)OC1c1ccccc1Cl (stereo unspecified) | solubility (mole fraction): 0.00221

* * *

- Conditions Used: in water, 308.15 K
Metric: solubility (mole fraction)
Give bare numbers.

Item: CC1(C)COP(=O)(O)OC1c1ccccc1Cl (stereo unspecified) | solubility (mole fraction): 0.000166

* * *

- Conditions Used: in methanol, 303.15 K
Metric: solubility (mole fraction)
Answers are plain numbers.

Item: CC1(C)COP(=O)(O)OC1c1ccccc1Cl (stereo unspecified) | solubility (mole fraction): 0.00809

* * *

- Conditions Used: in tert-butanol, 328.15 K
Metric: solubility (mole fraction)
Give bare numbers.

Item: CC1(C)COP(=O)(O)OC1c1ccccc1Cl (stereo unspecified) | solubility (mole fraction): 0.0469

* * *

- Conditions Used: in ethanol, 323.15 K
Metric: solubility (mole fraction)
Answers are plain numbers.

Item: CC1(C)COP(=O)(O)OC1c1ccccc1Cl (stereo unspecified) | solubility (mole fraction): 0.0135

* * *

- Conditions Used: in acetic acid, 333.15 K
Metric: solubility (mole fraction)
Answers are plain numbers.

Item: CC1(C)COP(=O)(O)OC1c1ccccc1Cl (stereo unspecified) | solubility (mole fraction): 0.00449

* * *

- Conditions Used: in isopropanol, 298.15 K
Metric: solubility (mole fraction)

Item: CC1(C)COP(=O)(O)OC1c1ccccc1Cl (stereo unspecified) | solubility (mole fraction): 0.0207

* * *

- Conditions Used: in water, 283.15 K
Metric: solubility (mole fraction)
Numbers only.

Item: CC1(C)COP(=O)(O)OC1c1ccccc1Cl (stereo unspecified) | solubility (mole fraction): 0.000123

* * *

- Conditions Used: in tert-butanol, 348.15 K
Metric: solubility (mole fraction)
Answers are plain numbers.

Item: CC1(C)COP(=O)(O)OC1c1ccccc1Cl (stereo unspecified) | solubility (mole fraction): 0.0691

* * *

- Conditions Used: in isopropanol, 293.15 K
Metric: solubility (mole fraction)
Give bare numbers.

Item: CC1(C)COP(=O)(O)OC1c1ccccc1Cl (stereo unspecified) | solubility (mole fraction): 0.0176

* * *

- Conditions Used: in water, 278.15 K
Metric: solubility (mole fraction)
One number for each entry.

Item: CC1(C)COP(=O)(O)OC1c1ccccc1Cl (stereo unspecified) | solubility (mole fraction): 0.000124

* * *

- Conditions Used: in isopropanol, 288.15 K
Metric: solubility (mole fraction)

Item: CC1(C)COP(=O)(O)OC1c1ccccc1Cl (stereo unspecified) | solubility (mole fraction): 0.016

* * *

- Conditions Used: in acetic acid, 313.15 K
Metric: solubility (mole fraction)
Give bare numbers.

Item: CC1(C)COP(=O)(O)OC1c1ccccc1Cl (stereo unspecified) | solubility (mole fraction): 0.0025

* * *

- Conditions Used: in acetic acid, 298.15 K
Metric: solubility (mole fraction)
Numbers only.

Item: CC1(C)COP(=O)(O)OC1c1ccccc1Cl (stereo unspecified) | solubility (mole fraction): 0.00156

* * *

- Conditions Used: in ethanol, 283.15 K
Metric: solubility (mole fraction)

Item: CC1(C)COP(=O)(O)OC1c1ccccc1Cl (stereo unspecified) | solubility (mole fraction): 0.00473

* * *

- Conditions Used: in tert-butanol, 313.15 K
Metric: solubility (mole fraction)
One number for each entry.

Item: CC1(C)COP(=O)(O)OC1c1ccccc1Cl (stereo unspecified) | solubility (mole fraction): 0.0313

* * *

- Conditions Used: in ethanol, 313.15 K
Metric: solubility (mole fraction)
Numbers only.

Item: CC1(C)COP(=O)(O)OC1c1ccccc1Cl (stereo unspecified) | solubility (mole fraction): 0.00995
